The origin of these recorded values is patent US20260297095A1.

Molecular target: UniProt:P07947
Sequence (P07947 whole entry): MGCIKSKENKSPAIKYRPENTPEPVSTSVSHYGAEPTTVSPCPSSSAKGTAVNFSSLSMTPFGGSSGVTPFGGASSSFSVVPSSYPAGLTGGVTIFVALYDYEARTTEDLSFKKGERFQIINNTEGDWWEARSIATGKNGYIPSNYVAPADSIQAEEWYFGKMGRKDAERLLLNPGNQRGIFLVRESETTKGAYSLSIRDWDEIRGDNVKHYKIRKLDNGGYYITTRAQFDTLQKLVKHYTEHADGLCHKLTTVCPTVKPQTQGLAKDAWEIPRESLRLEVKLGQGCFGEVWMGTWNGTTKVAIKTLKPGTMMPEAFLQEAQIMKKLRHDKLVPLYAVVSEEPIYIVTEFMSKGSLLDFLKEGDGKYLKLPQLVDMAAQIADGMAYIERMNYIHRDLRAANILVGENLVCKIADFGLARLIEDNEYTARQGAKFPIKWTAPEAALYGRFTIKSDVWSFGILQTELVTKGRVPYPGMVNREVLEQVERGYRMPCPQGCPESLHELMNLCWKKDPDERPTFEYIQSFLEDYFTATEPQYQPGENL
Assay: YES1 kinase inhibition, ADP Glo assay (Promega)
Type: biochemical
Details: compound 10 nM; read-out: YES1 enzyme, % inhibition, 10 nM
PROPERTY_NAME: inhibition at 0.01 µM (%)

Please review the entries below; each comes with its answer.
[[record]]
compound = "COc1cc(-c2cc(N3CCC4(CCCN4C)CC3)n3ncnc(N)c23)ccc1NC(=O)OC(C)(C)C [Example 24]"
property_name = "inhibition at 0.01 µM"
units_symbol = "%"
data_value = 50

[[record]]
compound = "COc1cc(-c2cc(N3CCC(N)C(C)C3)n3ncnc(N)c23)ccc1NC(=O)OC(C)(C)C (centres unmarked) [Example 48]"
property_name = "inhibition at 0.01 µM"
units_symbol = "%"
data_value = 70

[[record]]
compound = "COc1cc(-c2cc(N3CCC(C(C)(C)N)CC3)n3ncnc(N)c23)ccc1NC(=O)OC(C)(C)C [Example 106]"
property_name = "inhibition at 0.01 µM"
units_symbol = "%"
data_value = 43

[[record]]
compound = "COc1cc(-c2cc(N3CCC4(CC3)CN(C)C4)n3ncnc(N)c23)ccc1NC(=O)OC(C)(C)C [Example 21]"
property_name = "inhibition at 0.01 µM"
units_symbol = "%"
data_value = 67

[[record]]
compound = "COc1cc(-c2cc(N3CCC(CCN(C)C)CC3)n3ncnc(N)c23)ccc1NC(=O)OC(C)(C)C [Example 109]"
property_name = "inhibition at 0.01 µM"
units_symbol = "%"
data_value = 51

[[record]]
compound = "COc1cc(-c2cc(-c3ccc(N(C)C)c(C)c3)n3ncnc(N)c23)ccc1NC(=O)OC(C)(C)C [Example 3]"
property_name = "inhibition at 0.01 µM"
units_symbol = "%"
data_value = 44


a = COc1cc(-c2cc(N3CCC(O)CC3)n3ncnc(N)c23)ccc1NC(=O)OC(C)(C)C [Example 90]
b = CNC1CCN(c2c(F)c(-c3ccc(NC(=O)OC(C)(C)C)c(OC)c3)c3c(N)ncnn23)CC1 [Example 129]
Determine, for a and b , which has the greater value of inhibition at 0.01 µM. Select an item and report its label.
b

----------
Test system: KYSE-70 esophageal cancer cell line
Assay: Cell growth inhibition of KYSE-70 (Sulforhodamine B)
Type: cell-based
Conditions: Homo sapiens; KYSE-70, 72 hours; read-out: KYSE70 GI50
PROPERTY_NAME: GI50

[[record]]
line_notation = "COc1cc(-c2cc(CCN3CCC(N(C)C)CC3)n3ncnc(N)c23)ccc1NC(=O)OC(C)(C)C"
target_desc = "KYSE-70 esophageal cancer cell line"
data_value = "≤ 100 nM"

[[record]]
line_notation = "COc1cc(-c2cc(N3CC[C@@H](N(C)C)[C@@H](F)C3)n3ncnc(N)c23)ccc1NC(=O)OC(C)(C)C"
target_desc = "KYSE-70 esophageal cancer cell line"
data_value = "≤ 100 nM"


The compound "COc1cc(-c2c(I)c(N3CCC(N)CC3)n3ncnc(N)c23)ccc1NC(=O)OC(C)(C)C" showed GI50 equal to 100 to 1000 nM
